For each of the compounds below, state its pEC50.
test system: MCF7; assay: CellTiter-Glo Viability Assay, breast cancer; type: cell-based; conditions: Homo sapiens, 96 h; MCF7, breast cancer, four days; read-out: EC50
Just the number, please; pEC50 means minus log10 of the concentration in mol/L.

Request: Request the reported pEC50 associated with CN1CCC(Sc2ccc3cnc(NC(=O)c4ccnc(SC5CCN(C)CC5)c4)cc3c2)CC1
Result: 5.72

Request: Request the reported pEC50 associated with CN1CCC2(CC1)CN(c1cc(C(=O)Nc3cc4cc(-c5cnn(C)c5CO)ccc4cn3)ccn1)C2
Result: 5.47

###

test system: C2BBel; assay: CellTiter-Blue Cell Viability Assay; assay type: cell-based; details: Homo sapiens, 96 h, KRASwt, APCmut, 4 days
experimental.endpoint: pEC50
Just the number, please; pEC50 means minus log10 of the concentration in mol/L.

Request: Param readout = pEC50; param system = C2BBel; param query = CN1CCN(c2cc(C(=O)Nc3cc4cc(-c5cnn(C)c5)ccc4cn3)ccn2)CC1 ; response: value
Result: 7.11
